Record form. Attribute: protein stability index. Fill in for each entry.
B1: FAM189A2 (parent)
chain: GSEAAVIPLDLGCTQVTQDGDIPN

Variants of: B1
ASSAY REMARKS: protein stability index of a GFP-peptide fusion (GPS, HEK-293T) (PSI 1-6); higher = more stable;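 note: lentivirally expressed fusions sorted by FACS into six bins by GFP to DsRed ratio, PSI derived from sequencing read proportions per bin multiplied by bin number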
APPLIED CONDITIONS: c terminus: a fixed tail appended
Number only, no unit.

// recorded protein stability index for I22W : 5.34

// recorded protein stability index for D10H : 5.26

// recorded protein stability index for I7Y : 5.32

// recorded protein stability index for S2E : 5.55

// recorded protein stability index for P23V : 5.29

// recorded protein stability index for D19S : 4.62

// recorded protein stability index for N24P : 5.14

// recorded protein stability index for N24T : 5.54

// recorded protein stability index for P8L : 2.65

// recorded protein stability index for L9E : 5.41

// recorded protein stability index for D21P : 4.77

// recorded protein stability index for D10Q : 4.92

// recorded protein stability index for T14G : 5.17

// recorded protein stability index for D10I : 3.7

// recorded protein stability index for G12C : 4.6

// recorded protein stability index for A4L : 5.34

// recorded protein stability index for L11G : 5.6

// recorded protein stability index for T17F : 5

// recorded protein stability index for V16P : 5.52

// recorded protein stability index for I7R : 4.98

// recorded protein stability index for L9F : 4.92

// recorded protein stability index for T14I : 4.99
